- STUDY_SYSTEM: Adenylate cyclase type 1 (Homo sapiens, UniProt Q08828)
- Sequence (Q08828 whole entry): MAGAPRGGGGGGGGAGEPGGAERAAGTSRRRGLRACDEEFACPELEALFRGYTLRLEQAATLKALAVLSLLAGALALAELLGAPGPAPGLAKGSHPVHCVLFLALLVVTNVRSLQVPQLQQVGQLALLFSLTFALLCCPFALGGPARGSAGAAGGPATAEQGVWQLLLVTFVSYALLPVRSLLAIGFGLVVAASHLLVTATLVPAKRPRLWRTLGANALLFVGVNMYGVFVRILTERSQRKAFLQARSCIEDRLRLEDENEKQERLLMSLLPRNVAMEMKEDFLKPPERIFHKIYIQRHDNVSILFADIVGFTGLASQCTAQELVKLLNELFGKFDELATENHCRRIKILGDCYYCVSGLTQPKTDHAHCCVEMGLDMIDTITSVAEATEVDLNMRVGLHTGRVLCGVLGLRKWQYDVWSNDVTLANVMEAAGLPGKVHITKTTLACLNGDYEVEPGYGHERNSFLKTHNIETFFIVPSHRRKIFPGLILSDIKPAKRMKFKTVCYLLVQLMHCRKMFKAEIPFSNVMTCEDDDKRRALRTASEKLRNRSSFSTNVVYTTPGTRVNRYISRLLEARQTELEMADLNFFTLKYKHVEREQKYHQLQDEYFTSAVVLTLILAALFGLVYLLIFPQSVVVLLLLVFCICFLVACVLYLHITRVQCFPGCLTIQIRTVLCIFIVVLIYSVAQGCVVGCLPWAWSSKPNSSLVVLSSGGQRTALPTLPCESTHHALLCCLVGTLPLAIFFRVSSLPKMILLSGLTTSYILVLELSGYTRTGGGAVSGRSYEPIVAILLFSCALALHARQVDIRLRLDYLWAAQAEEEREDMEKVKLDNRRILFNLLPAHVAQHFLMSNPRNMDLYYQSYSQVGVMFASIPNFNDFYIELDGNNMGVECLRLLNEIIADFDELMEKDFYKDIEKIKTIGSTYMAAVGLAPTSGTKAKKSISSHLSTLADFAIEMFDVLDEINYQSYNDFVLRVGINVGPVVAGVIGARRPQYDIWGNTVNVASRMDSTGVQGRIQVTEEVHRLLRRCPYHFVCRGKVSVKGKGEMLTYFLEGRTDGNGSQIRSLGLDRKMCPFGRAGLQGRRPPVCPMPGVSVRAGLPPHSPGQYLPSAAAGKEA
Here the recorded pIC50 is given for each entry.
Reminder that pIC50 means the negative base-10 logarithm of the concentration expressed in mol/L.

Form field: reported pIC50 of "CCc1cc(=O)[nH]c(-n2nc(C)cc2NC(=O)c2cccc(C(F)(F)F)c2)n1" 6.17

Form field: reported pIC50 of "CCc1cc(=O)[nH]c(-n2nc(C)cc2NC(=O)c2ccccc2C)n1" 5.66

Form field: reported pIC50 of "CCc1cccc(C(=O)Nc2cc(C)nn2-c2nc(CC)cc(=O)[nH]2)c1" 6.36

Form field: reported pIC50 of "CCc1cc(=O)[nH]c(-n2nc(C)cc2NC(=O)c2ccc(-c3ccccc3)cc2)n1" 6.11

Form field: reported pIC50 of "CCc1cc(=O)[nH]c(-n2nc(C)cc2NC(=O)c2cccc(C)c2F)n1" 6.24

###

- STUDY_SYSTEM: Adenylate cyclase type 8 (Homo sapiens)
- PROCEDURE_DETAILS: Inhibition of Ca2+/ CAM stimulated human AC8 activity expressed in AC3 and AC6-knockout HEK293 cells assessed as A23187 stimulated cAMP accumulation incubated for 30 mins followed by […] in presence of IBMX for 1 hr by HTRF assay
pIC50: −log10 of the molar value.
ASSAY_ENDPOINT: pIC50

Solved entries:
# SAMPLE_SMILES, pIC50
data = [
    ("CCc1cc(=O)[nH]c(-n2nc(C)cc2NC(=O)c2ccc(OC)cc2)n1", "< 4.22"),
    ("CCc1cc(=O)[nH]c(-n2nc(C)cc2NC(=O)c2ccc(C)cc2)n1", "< 4.22"),
]

Form field: reported pIC50 of "CCc1cc(=O)[nH]c(-n2nc(C)cc2NC(=O)Cc2cccc(C)c2)n1" < 4.22

###

- STUDY_SYSTEM: Adenylate cyclase type 8 (Homo sapiens, UniProt P40145)
- Sequence (P40145 whole entry): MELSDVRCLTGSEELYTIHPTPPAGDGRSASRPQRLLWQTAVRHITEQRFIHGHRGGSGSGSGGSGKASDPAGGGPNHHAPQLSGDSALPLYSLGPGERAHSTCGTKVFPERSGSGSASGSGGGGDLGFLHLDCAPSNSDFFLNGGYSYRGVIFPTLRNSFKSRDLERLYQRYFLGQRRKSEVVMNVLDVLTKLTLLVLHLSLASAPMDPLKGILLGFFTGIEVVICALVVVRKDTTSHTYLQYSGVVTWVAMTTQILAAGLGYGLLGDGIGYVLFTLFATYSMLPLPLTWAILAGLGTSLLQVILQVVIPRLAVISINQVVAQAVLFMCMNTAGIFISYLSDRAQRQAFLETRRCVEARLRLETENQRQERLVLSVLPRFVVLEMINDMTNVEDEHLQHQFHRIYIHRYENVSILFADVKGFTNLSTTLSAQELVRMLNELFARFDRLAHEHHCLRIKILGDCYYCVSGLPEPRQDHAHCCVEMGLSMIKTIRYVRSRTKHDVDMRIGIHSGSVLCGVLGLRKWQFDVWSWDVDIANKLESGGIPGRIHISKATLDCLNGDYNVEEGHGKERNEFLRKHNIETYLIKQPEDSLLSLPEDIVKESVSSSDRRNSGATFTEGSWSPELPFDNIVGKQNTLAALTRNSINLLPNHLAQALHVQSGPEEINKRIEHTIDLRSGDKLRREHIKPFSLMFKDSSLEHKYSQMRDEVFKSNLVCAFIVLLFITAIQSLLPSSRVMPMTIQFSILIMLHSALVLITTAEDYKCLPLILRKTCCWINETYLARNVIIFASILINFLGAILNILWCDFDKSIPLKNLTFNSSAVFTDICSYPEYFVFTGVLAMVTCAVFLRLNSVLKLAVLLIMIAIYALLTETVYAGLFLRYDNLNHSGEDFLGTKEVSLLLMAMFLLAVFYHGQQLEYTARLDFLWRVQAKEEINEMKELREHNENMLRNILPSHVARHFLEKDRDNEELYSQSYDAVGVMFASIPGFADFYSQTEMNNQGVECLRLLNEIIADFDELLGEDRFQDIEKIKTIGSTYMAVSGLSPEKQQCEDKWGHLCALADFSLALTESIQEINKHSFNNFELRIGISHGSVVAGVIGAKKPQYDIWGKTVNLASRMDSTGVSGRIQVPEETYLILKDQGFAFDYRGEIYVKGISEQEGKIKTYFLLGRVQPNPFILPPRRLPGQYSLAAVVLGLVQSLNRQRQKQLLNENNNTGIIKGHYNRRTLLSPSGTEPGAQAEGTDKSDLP
- PROCEDURE_DETAILS: Inhibition of Ca2+/ CAM stimulated human AC8 activity expressed in AC3 and AC6-knockout HEK293 cells assessed as A23187 stimulated cAMP accumulation incubated for 30 mins followed by […] in presence of IBMX for 1 hr by HTRF assay
Here the recorded IC50 is given for each entry.
Give the value in µM but do not write µM after it.

Solved entries:
# SAMPLE_SMILES, UNIT_OF_MEASURE, IC50
rows = [
    ("CCc1cc(=O)[nH]c(-n2nc(C)cc2NC(=O)Cc2ccccc2F)n1", "µM", 3.4),
    ("CCc1cc(=O)[nH]c(-n2nc(C)cc2NC(=O)c2ccccn2)n1", "µM", 2.8),
    ("CCc1cc(=O)[nH]c(-n2nc(C)cc2NC(=O)c2ccc(Cl)cc2)n1", "µM", 2.5),
]

Identify the measured IC50 of "CCc1cc(=O)[nH]c(-n2nc(C)cc2NC(=O)c2cccc(Br)c2)n1" for Adenylate cyclase type 8 (Homo sapiens, UniProt P40145). 2.1

###

Here the recorded IC50 is given for each entry.
- STUDY_SYSTEM: Adenylate cyclase type 8 (Homo sapiens, UniProt P40145)
- PROCEDURE_DETAILS: Inhibition of Ca2+/ CAM stimulated human AC8 activity expressed in AC3 and AC6-knockout HEK293 cells assessed as A23187 stimulated cAMP accumulation incubated for 30 mins followed by […] in presence of IBMX for 1 hr by HTRF assay

# SAMPLE_SMILES, ASSAY_ENDPOINT, TEST_VALUE
records = [
    ("CCc1cc(=O)[nH]c(-n2nc(C)cc2NC(=O)c2ccccc2CC)n1", "IC50", "> 60 µM"),
    ("CCc1cc(=O)[nH]c(-n2nc(C)cc2NC(=O)c2ccc(OCOC)cc2)n1", "IC50", "> 30 µM"),
    ("CCc1cc(=O)[nH]c(-n2nc(C)cc2NC(=O)c2ccc(O)cc2)n1", "IC50", "> 60 µM"),
]

Form field: reported IC50 of "CCc1cc(=O)[nH]c(-n2nc(C)cc2NC(=O)c2cccc(C)c2F)n1" > 60 µM
